src = PubChem BioAssay (Tox21)

tested.system: Cytochrome P450 2C9 (Homo sapiens)
assay: Cytochrome P450 Family 2 Subfamily C Member 9 (CYP2C9) small molecule antagonists: luciferase reporter qHTS assay (AID 1671198); further: nearly all actives have a fitted effect of over 50% in size
assay.setup: P450-Glo CYP2C9 enzyme assay, luciferin luminescence; series mostly up to 115 µM
Records with an inconclusive call do not appear. Calls of active or inactive are those of the source. The call rests on the fitted dose curve; in most records, active means well fitted inhibition curve with a large enough effect in the repeat runs; inconclusive means weak or mixed curves; inactive means no such curve, though single readings can be large or run the other way.
Possible outcomes: YES = active, NO = inactive

smiles.code: CN(C)CCN(Cc1ccsc1)c1ccccn1
label.value: NO

smiles.code: CCN(CC)CCNc1ccc(CNC=O)c2sc3ccc(OC)cc3c(=O)c12
label.value: YES

smiles.code: CNC(=O)CN(CCN(CCN(CC(=O)[O-])CC(=O)NC)CC(=O)[O-])CC(=O)[O-].O.[Gd+3]
label.value: NO
